Cited source: PubChem BioAssay (NCI)

test system: SF-268 CNS; assay: NCI tumour cell line growth inhibition, 48 h
Please respond with reported TGI for every item in the list.

Which TGI value is on record for CCOC(=O)c1cnc2c(ccc3[nH]n(C)nc32)c1=O ?
> 100 µM

Which TGI value is on record for CC1=C(C(=O)Nc2ccc(F)c(Cl)c2)C(c2ccccc2O)NC(=S)N1 (stereo unspecified) ?
> 50 µM

Which TGI value is on record for CCCC(=O)NC(NC1CCCCC1)(C(=O)OCC)C(F)(F)F (stereo unspecified) ?
> 100 µM

Which TGI value is on record for N#CC1C(=S)NC(c2ccccc2)=CC12CCCCC2 (stereo unspecified) ?
> 100 µM

Which TGI value is on record for COc1cccc(C(=O)Oc2ccc(OS(=O)(=O)c3ccc(C)cc3)cc2)c1C#N ?
> 100 µM

Which TGI value is on record for CC(C)(C)NNC(=O)CCn1[nH]c(=O)c(Cl)c(Cl)c1=O ?
> 100 µM

###

system: K-562 leukemia; experiment: NCI tumour cell line growth inhibition, 48 h
Please respond with reported GI50 for every item in the list.

Which GI50 value is on record for C/C=C(\C)C(=O)O[C@H]1C=CC(=O)O[C@H]1CCC(=O)[C@H](C)O ?
4.92 µM

Which GI50 value is on record for c1ccc(-c2nnc(-c3ccccn3)s2)nc1 ?
> 100 µM

Which GI50 value is on record for CNCc1ccccc1-c1csc([C@@H](C)Nc2nc(C)nc3cc(OC)c(OC)cc23)c1 ?
0.168 µM

Which GI50 value is on record for COc1ccc(/C=C\[N+](=O)[O-])cc1OC ?
2.36 µM

Which GI50 value is on record for O=C(Nc1ccc(Br)cc1F)c1cc(F)ccc1O ?
0.445 µM

Which GI50 value is on record for CC1(C)N=C(N)N=C(N)N1c1ccc(CCCCc2ccc(Cl)cc2S(=O)(=O)F)c(Cl)c1 ?
0.073 µM

Which GI50 value is on record for NC(=O)/C=C/C(=O)c1c(Cl)cccc1Cl ?
0.653 µM

Which GI50 value is on record for NC(=S)N/N=C/C(=O)O ?
27 µM

Which GI50 value is on record for O=C(Nc1ccc(Nc2ccncc2)cc1)c1ccc([N+](=O)[O-])cc1 ?
3.11 µM

Which GI50 value is on record for Nc1ccc([N+](=O)[O-])cc1N=C/C=C/c1ccccc1 ?
5.43 µM

Which GI50 value is on record for NS(=O)(=O)c1ccc(/C=C/c2ccc(O)c(O)c2)cc1 ?
35.3 µM

###

system: RXF-631 renal; assay: NCI tumour cell line growth inhibition, 48 h
READOUT LABEL: TGI

Which TGI value is on record for CCCCCCCCCCCCCC(=O)OCC(C[As](=O)(O)O)OC(=O)CCCCCCCCCCCCC (stereo unspecified) ?
> 100 µM

Which TGI value is on record for CC12C/C(=C\c3ccccc3)C(=O)C3C1CCCC32 ?
> 100 µM

Which TGI value is on record for CN1CC(=O)N2Cc3ccccc3-n3cccc3C2C1 (stereo unspecified) ?
> 100 µM

Which TGI value is on record for Cc1cn2c(=O)c3ncn(C4OC(CO)C(O)C4O)c3n(C)c2n1 (stereo unspecified) ?
> 100 µM

Which TGI value is on record for COc1cccc2c1C(=O)c1c(O)c3c(c(O)c1C2=O)C[C@@](O)(C(=O)CO)C[C@@H]3OC1CC(N)CC(C)O1 (stereo partly specified) ?
0.9 µM

Which TGI value is on record for CC(C)CCC1CC2C(=O)N(c3ccccc3)C(=O)C2c2[nH]c3ccccc3c21 (stereo unspecified) ?
13.8 µM
